# procedure details: chemical genetic growth profiling, strain panel (AID 1159580);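 further: tested at 20 µM; growth read once vehicle control cultures reached saturation at 30 °C; 1 = growth at the plate median or of vehicle wells; lower values mean less growth of the strain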
# assay context: S. cerevisiae deletion strains, growth OD, locus YDL192W, strain arf1
Hit rate of the full screen: of about 5,500 compounds, about 2,000 (36%) were called active. About 18% were inconclusive and are not listed. No stated cut-off is given here; in the data, active means normalized growth mostly below about 0.91 (no sharp cut-off); inconclusive means no clear call, values can overlap the other calls; inactive means mostly above about 0.92. The list shows a part of the results.
Your answer must be one of the following: active, inactive

>>> label_class("COc1ccc(-c2coc3c(O)c(OC)ccc3c2=O)cc1")
"active"
>>> label_class("Cc1c(N(C)C)c(=O)n(-c2ccccc2)n1C")
"inactive"
>>> label_class("CC(=C(CCOP(=O)(O)O)SC(=O)c1ccccc1)N(C=O)Cc1cnc(C)nc1N")
"inactive"
>>> label_class("CCc1ccc(CCOc2ccc(CC3SC(=O)NC3=O)cc2)nc1 (stereo not drawn)")
"inactive"
>>> label_class("CC(=O)O[C@@](C)(CCC=C(C)C)C1CC=C(C)CC1 (stereo partly drawn)")
"inactive"

Name the outcome recorded for COc1ccc(C(=O)c2ccccc2)c(O)c1 in the assay.
active

Name the outcome recorded for O=C(O)C1C(O)CCC2CN3CCc4c([nH]c5ccccc45)C3CC21 (stereo not drawn) in the assay.
inactive

Name the outcome recorded for COC(=O)[C@@H]1C(O)CC[C@H]2CN3CCc4c([nH]c5ccccc45)[C@@H]3C[C@@H]21 (stereo partly drawn) in the assay.
inactive

Name the outcome recorded for C[CH2][Hg][S]c1ccccc1C(=O)O in the assay.
active

Name the outcome recorded for CC(C)(C)CC(C)(C)c1ccc(OCCOCC[N+](C)(C)Cc2ccccc2)cc1 in the assay.
inactive

Name the outcome recorded for CN=C(NC#N)NCCSCc1nc[nH]c1C in the assay.
inactive

Name the outcome recorded for COc1ccc(C(=O)c2ccccc2O)c(O)c1 in the assay.
active

Name the outcome recorded for CCCCCCCCCCCCC[N+](C)(C)Cc1ccccc1 in the assay.
active

Name the outcome recorded for Cc1cc(C(C)(C)CC(C)(C)C)ccc1OCCOCC[N+](C)(C)Cc1ccccc1 in the assay.
active

Name the outcome recorded for N=c1nc(N2CCCCC2)cc(N)n1O in the assay.
inactive

Name the outcome recorded for NC[C@@H]1O[C@H](O[C@@H]2[C@@H](CO)OC(O[C@@H]3[C@@H](O)[C@H](N)C[C@H](N)[C@H]3OC3O[C@H](CN)[C@@H](O)[C@H](O)[C@H]3N)[C@@H]2O)[C@H](N)[C@@H](O)[C@@H]1O (stereo partly drawn) in the assay.
inactive

Name the outcome recorded for CNc1ccccc1C(=O)N1CCc2c([nH]c3ccccc23)C1=O in the assay.
inactive

Name the outcome recorded for COc1ccc(-c2coc3c(OC)c(O)ccc3c2=O)cc1 in the assay.
inactive

Name the outcome recorded for CCOC(=O)/C=C(\C)OP(=O)(OC)OC in the assay.
inactive

Name the outcome recorded for CCC(C(N)=O)c1ccccc1 (stereo not drawn) in the assay.
inactive

Name the outcome recorded for COc1cc(O)c(C(=O)c2ccccc2)cc1O in the assay.
inactive

Name the outcome recorded for C1CCc2nnnn2CC1 in the assay.
inactive

Name the outcome recorded for COc1ccc(-c2coc3c(OC)c(OC)cc(OC)c3c2=O)cc1 in the assay.
inactive

* * *

# procedure details: chemical genetic growth profiling, strain panel (AID 1159580);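 further: tested at 20 µM; growth read once vehicle control cultures reached saturation at 30 °C; 1 = growth at the plate median or of vehicle wells; lower values mean less growth of the strain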
# assay context: S. cerevisiae deletion strains, growth OD, locus YFR019W, strain FAB1
Among all 5,500 compounds or so, about 2,000 (36%) were called active. Another 18% or so got no clear call; they are omitted. Cut-off read from the data, not from the text of the source: active = normalized growth mostly below about 0.91 (no sharp cut-off); inconclusive = no clear call, values can overlap the other calls; inactive = mostly above about 0.92. This is one part of the list.
Your answer must be one of the following: active, inactive

The following compounds have reported results that may help.
>>> label_class("Cc1cc(SCc2[nH]nc3oc(=O)cc(C)c23)c(Cl)cc1Cl")
"inactive"
>>> label_class("COc1ccc(NC(=O)O/N=C(/N)c2ccc(Oc3c(Cl)cncc3Cl)cc2)cc1")
"active"
>>> label_class("N#C/C(=N/Nc1ccccc1Cl)S(=O)(=O)c1ccc(Cl)cc1")
"inactive"
>>> label_class("O=C(Nc1cc(Cl)cc(Cl)c1)Nc1cc(-c2ccco2)[nH]n1")
"active"
>>> label_class("S=C(Nc1cc(-c2cccs2)[nH]n1)Nc1ccccc1Cl")
"inactive"
>>> label_class("Cc1c(Cl)cccc1NC(=S)N1CCCN(c2nc3ccc(Cl)cc3s2)CC1")
"inactive"
>>> label_class("CCC(C)c1ccccc1NC(=O)c1cc2cccc([N+](=O)[O-])c2[nH]1 (configuration not stated)")
"inactive"
>>> label_class("Cn1cncc1S(=O)(=O)/C(C#N)=C/c1ccccc1Sc1ccc(Cl)cc1")
"active"
>>> label_class("CC1=CC(=O)C(CCOCCC2=CC(=O)C(C)=CC2=O)=CC1=O")
"inactive"
>>> label_class("C/C(=N/NC(N)=S)c1ccccn1")
"inactive"

Name the outcome recorded for O=C(C=C(O)c1ccc(Br)cc1)C(=O)Nc1ccccc1 in the assay.
active

Name the outcome recorded for Cc1c(C(=O)N2CCCCC2)cc(-c2ccccc2)n1-c1ccccc1 in the assay.
inactive

* * *

# procedure details: chemical genetic growth profiling, strain panel (AID 1159580);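 further: tested at 20 µM; growth read once vehicle control cultures reached saturation at 30 °C; 1 = growth at the plate median or of vehicle wells; lower values mean less growth of the strain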
# assay context: S. cerevisiae deletion strains, growth OD, locus YAL040C, strain CLN3
In all, about 5,500 compounds went through this assay and about 2,000 (36%) were called active. About 18% were inconclusive and are not listed. Cut-off read from the data, not from the text of the source: active = normalized growth mostly below about 0.91 (no sharp cut-off); inconclusive = no clear call, values can overlap the other calls; inactive = mostly above about 0.92. This is one part of the list.
Your answer must be one of the following: active, inactive

The following molecules have reported results that may help.
>>> label_class("CC(=O)SCC[N+](C)(C)C")
"active"
>>> label_class("CN(C)CC[C@@H](c1ccc(Cl)cc1)c1ccccn1")
"inactive"
>>> label_class("N[C@@H](CS(=O)O)C(=O)O")
"inactive"
>>> label_class("O=C(O)[C@H]1NCCC[C@H]1C(=O)O")
"inactive"
>>> label_class("CCOC(=O)C1=C(C)NC(=S)NC1c1cccc(O)c1 (stereo not drawn)")
"inactive"

Name the outcome recorded for NCC1(CC(=O)O)CCCCC1 in the assay.
inactive

Name the outcome recorded for CSC(=N)N in the assay.
inactive

Name the outcome recorded for C[C@H]1OC[C@@H](C[N+](C)(C)C)O1 in the assay.
inactive

Name the outcome recorded for CC(C)C[C@H]1C(=O)N2CCC[C@H]2[C@]2(O)O[C@](NC(=O)[C@@H]3C=C4c5cccc6[nH]c(Br)c(c56)C[C@H]4N(C)C3)(C(C)C)C(=O)N12 in the assay.
active

Name the outcome recorded for C[N+](C)(C)CC(=O)O in the assay.
inactive

Name the outcome recorded for CCCCCCCCCCCCC/C=C/[C@@H](O)[C@@H](N)CO in the assay.
inactive

Name the outcome recorded for COc1ccccc1N1CCN(CCCCNC(=O)c2ccc3ccccc3c2)CC1 in the assay.
inactive

Name the outcome recorded for N#C/C(=C\c1ccc(O)c(O)c1)C(=O)Nc1ccccc1 in the assay.
inactive

Name the outcome recorded for Nc1nc(Cl)nc2c1ncn2[C@@H]1O[C@H](CO)[C@H](O)C1O (stereo partly drawn) in the assay.
inactive

Name the outcome recorded for C1CCc2nnnn2CC1 in the assay.
inactive

Name the outcome recorded for CC(C)[C@@]1(NC(=O)[C@@H]2C=C3c4cccc5[nH]cc(c45)C[C@H]3N(C)C2)O[C@@]2(O)[C@@H]3CCCN3C(=O)[C@H](Cc3ccccc3)N2C1=O in the assay.
inactive

Name the outcome recorded for Nc1nc2[nH]c(=O)cnc2c(=O)[nH]1 in the assay.
inactive

Name the outcome recorded for O=Nc1ccc2oc(=O)ccc2c1 in the assay.
inactive

Name the outcome recorded for CNC1(C)C2CCC(C2)C1(C)C (stereo not drawn) in the assay.
inactive

Name the outcome recorded for NC(=NCCC[C@H](N)C(=O)O)NO in the assay.
inactive

* * *

# procedure details: chemical genetic growth profiling, strain panel (AID 1159580);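 further: tested at 20 µM; growth read once vehicle control cultures reached saturation at 30 °C; 1 = growth at the plate median or of vehicle wells; lower values mean less growth of the strain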
# assay context: S. cerevisiae deletion strains, growth OD, locus YOR316C, strain cot1, active compounds read low
Out of some 5,500 compounds screened, about 2,000 (36%) were called active. Roughly 18% stayed inconclusive and do not appear here. The list shows a part of the results.
assay metric: normalized growth
Answers are plain numbers.

Here is how some compounds turned out for normalized growth.
>>> obs_value("N=c1nc(N2CCCCC2)cc(N)n1O")
0.993
>>> obs_value("CN1CCc2cc3c(cc2C1O)OCO3 (stereo unspecified)")
0.979
>>> obs_value("C=CC1=C(C(=O)O)N2C(=O)[C@@H](NC(=O)/C(=N/O)c3csc(N)n3)[C@H]2SC1")
0.994
>>> obs_value("Oc1ccc(O)cc1")
1.03
>>> obs_value("C/C=C(/C(=C/C)c1ccc(O)cc1)c1ccc(O)cc1")
0.993

Report normalized growth for each item below.
1. Cc1ccc(O)cc1
2. O=C(O)c1ccccc1OP(=O)(O)O
3. C[CH2][Hg][S]c1ccccc1C(=O)O

1. 0.999
2. 0.99
3. 0.0555

Report normalized growth for each item below.
1. O=C(O)COc1cc(Cl)c(Cl)cc1Cl
2. Cc1cc(=O)c2c(O)cc(O)c(C)c2o1
3. NC/C=C/C(=O)O
4. COc1ccc(C(=O)c2ccccc2)c(O)c1
5. Cn1cc[nH]c1=S
6. O=c1ccc2ccccc2o1

1. 1.01
2. 0.969
3. 1.02
4. 0.903
5. 0.974
6. 1

Report normalized growth for each item below.
1. C=C1CC[C@H](O)C/C1=C/C=C1\CCC[C@]2(C)C([C@H](C)/C=C/[C@H](C)C(C)C)CC[C@@H]12 (stereo partly specified)
2. COc1ccc(-c2c(O)c3cc4c(c(CC=C(C)C)c3oc2=O)OC(C)(C)CC4)cc1
3. c1ccc(CN(CC2=NCCN2)c2ccccc2)cc1
4. OCCN(CCO)c1nc(N2CCCCC2)c2nc(N(CCO)CCO)nc(N3CCCCC3)c2n1

[0.978, 1.02, 1, 0.999]

Report normalized growth for each item below.
1. CCC1(c2ccc(N)cc2)CCC(=O)NC1=O (stereo unspecified)
2. COc1cc(O)c(C(=O)c2ccccc2)cc1O
3. COC(=O)COc1ccc(Cl)cc1Cl
4. COc1ccc(C(=O)c2ccccc2O)c(O)c1
5. COc1cc2c(cc1OC)C(=O)C(CC1CCN(Cc3ccccc3)CC1)C2 (stereo unspecified)
6. C=CC(C)(C)c1c2c(c(O)c3c(=O)c4ccc(O)c(O)c4oc13)C=CC(C)(C)O2
7. COc1c(CC=C(C)C)c2c(c3oc(=O)c(-c4ccc(OC(C)=O)cc4)c(OC(C)=O)c13)C=CC(C)(C)O2
8. CCC(C(N)=O)c1ccccc1 (stereo unspecified)

0.996
0.958
1.01
0.936
1.01
0.986
1.01
0.988
